Target: recombinant PRL-1 (Homo sapiens, UniProt Q93096)
Construct: 6xHis (N, cleaved yes); made in house; host or cells: E. coli One Shot BL21 Star
Sequence (Q93096 whole entry): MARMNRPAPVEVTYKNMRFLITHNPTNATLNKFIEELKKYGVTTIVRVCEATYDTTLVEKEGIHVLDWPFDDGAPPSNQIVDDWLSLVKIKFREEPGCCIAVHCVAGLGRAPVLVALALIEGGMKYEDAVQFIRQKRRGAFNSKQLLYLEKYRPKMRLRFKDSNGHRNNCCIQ
Experiment: In vitro phosphatase assay (DiFMUP hydrolysis), PRL-1; note: test concentration or dose not given here
Assay type: biochemical
Conditions: FDA-approved drug screen; compared to DMSO
Where a name gives a salt, the structure may show the parent alone.
outcome-measure: % Phosphatase Activity (compared to DMSO) PRL-1 (%)
Write the answer as a number in %, unit excluded.

Example results:
{"compound": "COC(=O)N[C@H](C(=O)N1CCC[C@H]1c1ncc(-c2ccc(-c3ccc(-c4cnc([C@@H]5CCCN5C(=O)[C@@H](NC(=O)OC)C(C)C)[nH]4)cc3)cc2)[nH]1)C(C)C", "measured": 320}
{"compound": "COc1ccc2c(c1OC)C(=O)O[C@@H]2[C@H]1c2c(cc3c(c2OC)OCO3)CCN1C [Noscapine HCl]", "measured": 92}
{"compound": "CC(C)(S)[C@@H](N)C(=O)O", "measured": 85}

Ask: Give the reported % Phosphatase Activity (compared to DMSO) PRL-1 for COc1ccc(C(=O)N2CCCC2=O)cc1 (system: recombinant PRL-1 (Homo sapiens, UniProt Q93096)).
Result: 102

====

Target: recombinant PRL-3 (Homo sapiens)
Construct: 6xHis (N, cleaved yes); made in house; host or cells: E. coli One Shot BL21 Star
Sequence (O75365 whole entry): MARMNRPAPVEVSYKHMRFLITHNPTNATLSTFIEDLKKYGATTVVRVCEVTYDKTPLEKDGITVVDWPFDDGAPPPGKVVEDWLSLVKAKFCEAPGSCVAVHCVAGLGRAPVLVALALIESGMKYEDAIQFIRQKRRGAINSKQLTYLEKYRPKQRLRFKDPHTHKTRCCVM
Assay: In vitro phosphatase assay (DiFMUP hydrolysis), PRL-3; note: test concentration or dose not given here
Type: biochemical
Counter-ions that a name gives are not always drawn.
outcome-measure: % Phosphatase Activity (compared to DMSO) PRL-3 (%)
Write the answer as a number in %, unit excluded.

Example results:
{"compound": "COc1nc(N)nc2c1ncn2[C@@H]1O[C@H](CO)[C@@H](O)[C@@H]1O", "measured": 79}
{"compound": "Cc1cc(NS(=O)(=O)c2ccc(N)cc2)no1", "measured": 86}
{"compound": "NC(CO)(CO)CO", "measured": 82}
{"compound": "C[C@]12CCC(=O)C(O)=C1CC[C@@H]1[C@@H]2CC[C@]2(C)C(=O)CC[C@@H]12", "measured": 85}
{"compound": "CCCSc1ccc2nc(NC(=O)OC)[nH]c2c1", "measured": 78}
{"compound": "CC(C)NCC(O)COc1ccc(CCOCC2CC2)cc1.Cl (stereo not drawn) [Betaxolol hydrochloride (Betoptic)]", "measured": 97}

Ask: Give the reported % Phosphatase Activity (compared to DMSO) PRL-3 for CCCCC(CC)COC(=O)CC(C(=O)OCC(CC)CCCC)S(=O)(=O)O (stereo not drawn) [Docusate Sodium, reference compound] (system: recombinant PRL-3 (Homo sapiens)).
Result: 34

Ask: Try this compound next: COc1cc(Cc2cnc(N)nc2N)cc(OC)c1OC
Result: 79

Ask: Try this compound next: CCCCc1oc2ccccc2c1C(=O)c1cc(I)c(OCCN(CC)CC)c(I)c1 [Amiodarone HCl]
Result: 102

Ask: Try this compound next: O=P1(N(CCCl)CCCl)NCCCO1 (stereo not drawn) [Cyclophosphamide Monohydrate]
Result: 94

Ask: Try this compound next: CC(C)NC[C@H](O)COc1ccc(CCOCC2CC2)cc1.Cl [Levobetaxolol HCl]
Result: 69

Ask: Try this compound next: NC(N)=Nc1nc(CSCCC(N)=NS(N)(=O)=O)cs1
Result: 86
